System: MS2 coat protein
Assay: apparent KD of MS2 coat protein; designed switch direction (-1 OFF switch, 1 ON switch): -1; higher = weaker reporter binding
Conditions: input ligand: FMN 200 uM
Response key: satisfied means apparent KD of MS2 coat protein >= 0.1 µM; not satisfied means apparent KD of MS2 coat protein < 0.1 µM.

>  <seq>
UAACAAGCUUUAAGAUCCUACAUGAGGAUCACCCAUGUGCUCGUCUUAUAACGUACUGUGACGAAAGUCACGGUACG [JL TOV1 3.17] (Eterna round: R97, puzzle: Sensor, turn-off variant 1)

>  <target.entity>
MS2 coat protein

>  <category.label>
satisfied

$$$$
>  <seq>
GACCUACAUGAGGAUCACCCAUGUGAGGAUAUAUUGUUAUUUAUAAUAUUUUUUAGUGGUAGAAGGCGCGUGAU [JR_Exc1_Sub018] (Eterna round: R97, puzzle: Exclusion 1)

>  <target.entity>
MS2 coat protein

>  <category.label>
not satisfied

$$$$
>  <seq>
UUCCCACAUGAGGAUCACCCAUGUGAGGAUAUGGAGCGCGACCGCGCGGUCGCGUACACCAGAAGGCGCAUGAU [1st #80] (Eterna round: R97, puzzle: Exclusion 1)

>  <target.entity>
MS2 coat protein

>  <category.label>
not satisfied

$$$$
>  <seq>
CCUUAACAUGAGGAUCACCCAUGUGAGGAUAUGAUGCAGCAGUGGUCUACGCUGUGCAUCAGAAGGUACAUGGU (Eterna round: R96, puzzle: Exclusion 1)

>  <target.entity>
MS2 coat protein

>  <category.label>
satisfied

$$$$
>  <seq>
AGCGAAUAGCUAGGAUAUGAGAAUAGAUAGAGCUCAGAAGGAGCACAUGAGGAUCACCCAUGUGAAGUCUUGAGGCUGCGUGGU [Prohibition 17 - Jieux - Exclusion NG 1] (Eterna round: R96, puzzle: Exclusion NG 1)

>  <target.entity>
MS2 coat protein

>  <category.label>
not satisfied

$$$$
>  <seq>
CCGUUCCGUGUAGGAUAUUGGCCUUCCUCGGGCCGAGAAGGACAUGAGGAUCACCCAUGUAUGCUAUUAUCGCGCGUGGCGCCC [Design 98] (Eterna round: R96, puzzle: Exclusion NG 1)

>  <target.entity>
MS2 coat protein

>  <category.label>
satisfied

$$$$
>  <seq>
AGUGUGGGAGGAUAUACAUGAGGAUCACCCAUGUGAGUUGGCUCACAUGCUACGCUUCGUAGAAGGCCCAAAGA [Reragebion] (Eterna round: R96, puzzle: Exclusion 3)

>  <target.entity>
MS2 coat protein

>  <category.label>
satisfied

$$$$
>  <seq>
UUGUUCUGAGGAUAUACAUGAGGAUCACCCAUGUGUUUCUGCUUGGAGACUAGCGAAUGUAGAAGGCUGUUCUC [salish99_ex3_r4_021] (Eterna round: R97, puzzle: Exclusion 3)

>  <target.entity>
MS2 coat protein

>  <category.label>
not satisfied

$$$$
>  <seq>
UUUUUUUUGGUAAGGAUAUGAUGCAGGAAACUGCGUCAGAAGGUACAUGAGGAUCACCCAUGUUAAUUUUUUUU [Explosion 11 - Jieux - Brourd's mod of Exclusion 4] (Eterna round: R97, puzzle: Brourd's mod of Exclusion 4)

>  <target.entity>
MS2 coat protein

>  <category.label>
not satisfied

$$$$
>  <seq>
GUCAUGUUAGGAUAUUUCCCAGCUGAGACUACAGAUUGUAGGAAGAAGGAACAUGAGGAUCACCCAUGUGAAAA [Eternabot (L2) Solution 28] (Eterna round: R97, puzzle: Exclusion 4)

>  <target.entity>
MS2 coat protein

>  <category.label>
not satisfied

$$$$
>  <seq>
GGUGAGCUAGGAUAUGCUUUGGGCCCGCAUUCCUUCGAUAAACUUGAGGAUCACCCAAGUAGAAGGAGCUUGCC [salish99_ex2_r4_031] (Eterna round: R97, puzzle: Exclusion 2)

>  <target.entity>
MS2 coat protein

>  <category.label>
not satisfied

$$$$
>  <seq>
ACUUAUAGAGGAUAUACAGUUAAUUACAUGAGGAUCACCCAUGUUCUUCAAUGUAUAUAAGUAGAAGGCAAAGGAA [Mat - Exclusion 5 - Eli Mod - D3] (Eterna round: R97, puzzle: Exclusion 5)

>  <target.entity>
MS2 coat protein

>  <category.label>
not satisfied

$$$$
>  <seq>
UGAGUGCUGCGAGGAUAUACAUGAGGAUCACCCAUGUAAUCGUGUGAGGCAAAGCCUCACACGAAGUAGAAGGCGCAGUACUCA [Mat - Exclusion NG 2 - Mod of JL - D18] (Eterna round: R96, puzzle: Exclusion NG 2)

>  <target.entity>
MS2 coat protein

>  <category.label>
not satisfied

$$$$
>  <seq>
AUAAAAUGCCAAGGAUAUCGGAAAGGAAGUGUACGAGAAGGUGGAGAUCCUAUACAUGAGGAUCACCCAUGUAUCAAGCUUGGG [PowerStrip EXNG 1.10] (Eterna round: R96, puzzle: Exclusion NG 1)

>  <target.entity>
MS2 coat protein

>  <category.label>
satisfied

$$$$
>  <seq>
CCCGCGGGCGCAGGAUAUACAUGAGGAUCACCCAUGUGCCGCGCAAGCGGCAGAGCGGACAACGGGUAGAAGGGCGCCCGCGGG [first try] (Eterna round: R96, puzzle: Exclusion NG 2)

>  <target.entity>
MS2 coat protein

>  <category.label>
satisfied

$$$$
>  <seq>
AAAGCGCGGUGAUAAUCUGUAACAUGAGGAUCACCCAUGUAGCAGGAUAUGGGCACAGUGGAAACUCAGAAGGGCUAUAAGCGC [Eternabot solution 21] (Eterna round: R96, puzzle: Exclusion NG 3)

>  <target.entity>
MS2 coat protein

>  <category.label>
satisfied

$$$$
>  <seq>
UAGAUGUGAGGAUAUACAUGAAUGCAGGAUCGUGUGGUGCUACAUGAGGAUCACCCAUGUAGAAGGCACGUCUU [Mod 9 R3 JL-ex2-2.29 - Jieux - Exclusion 2] (Eterna round: R97, puzzle: Exclusion 2)

>  <target.entity>
MS2 coat protein

>  <category.label>
not satisfied

$$$$
>  <seq>
UCCUUACUGGUCAGGAUAUACAGUCGCGGGUGGGUGUAGAAGGGACAUGAGGAUCACCCAUGUACGUUACAGCC [alecazam54i] (Eterna round: R97, puzzle: Brourd's mod of Exclusion 4)

>  <target.entity>
MS2 coat protein

>  <category.label>
not satisfied

$$$$

Values compiled from the supplement of paper PMC9170038.
